Test system: HK-2
assayProtocol: Cytotoxicity against human HK2 cells assessed as growth inhibition after 48 hrs by MTT assay
Assay type: cell-based
reportedConditions: HK-2, 48 h
attributeMeasured: IC50 (µM)
State the answer as a number, implicitly in µM.

Worked set:
{"smilesEntry": "CC1=C(CCCC(=O)OCO/[N+]([O-])=N/N2CCCC2)C(=O)c2c(O)cccc2C1=O", "measurementTarget": "HK-2", "unitsText": "µM", "obsValue": 18.1}
{"smilesEntry": "CC1=C(CCC(=O)OCO/[N+]([O-])=N/N2CCOCC2)C(=O)c2c(O)cccc2C1=O", "measurementTarget": "HK-2", "unitsText": "µM", "obsValue": 24.6}
{"smilesEntry": "CC1=C(CCCC(=O)OCO/[N+]([O-])=N/N2CCOCC2)C(=O)c2c(O)cccc2C1=O", "measurementTarget": "HK-2", "unitsText": "µM", "obsValue": 23.5}
{"smilesEntry": "CC1=C(CCC(=O)OCO/[N+]([O-])=N/N2CCCC2)C(=O)c2c(O)cccc2C1=O", "measurementTarget": "HK-2", "unitsText": "µM", "obsValue": 25.6}
{"smilesEntry": "CC1=CC(=O)c2c(O)cccc2C1=O", "measurementTarget": "HK-2", "unitsText": "µM", "obsValue": 23.6}
{"smilesEntry": "CC1=C(CCC(=O)OCO/[N+]([O-])=N/N2CCCCC2)C(=O)c2c(O)cccc2C1=O", "measurementTarget": "HK-2", "unitsText": "µM", "obsValue": 27.7}

Given item `CC1=C(CCCC(=O)OCO/[N+]([O-])=N/N2CCCCC2)C(=O)c2c(O)cccc2C1=O` , the value recorded as its IC50 is 17.7

----------
System: HepG2
assayProtocol: Cytotoxicity against human HepG2 cells assessed as growth inhibition after 48 hrs by MTT assay
Assay type: functional, cell-based
reportedConditions: HepG2, 48 h
pIC50: −log10 of the molar value.
Please enter met where pIC50 is greater than or equal to 5, and not met where it is lower.

{"smilesEntry": "CC1=C(CCCC(=O)OCO/[N+]([O-])=N/N2CCCCC2)C(=O)c2c(O)cccc2C1=O", "label": "met"}
{"smilesEntry": "CC1=C(CCC(=O)OCO/[N+]([O-])=N/N2CCCC2)C(=O)c2c(O)cccc2C1=O", "label": "not met"}

Req: Textbook exercise: given the entry `CC1=C(CCC(=O)OCO/[N+]([O-])=N/N2CCOCC2)C(=O)c2c(O)cccc2C1=O` , state whether its pIC50 is greater than or equal to 5.
Resp: not met

Req: Textbook exercise: given the entry `CC1=C(CCCC(=O)OCO/[N+]([O-])=N/N2CCCC2)C(=O)c2c(O)cccc2C1=O` , state whether its pIC50 is greater than or equal to 5.
Resp: met

Req: Textbook exercise: given the entry `CC1=C(CCCC(=O)OCO/[N+]([O-])=N/N2CCOCC2)C(=O)c2c(O)cccc2C1=O` , state whether its pIC50 is greater than or equal to 5.
Resp: met

Req: Textbook exercise: given the entry `CC1=C(CCC(=O)OCO/[N+]([O-])=N/N2CCCCC2)C(=O)c2c(O)cccc2C1=O` , state whether its pIC50 is greater than or equal to 5.
Resp: not met

----------
Test system: A549
assayProtocol: Cytotoxicity against human A549 cells assessed as growth inhibition at 10 uM after 48 hrs by MTT assay relative to control
Type: functional
reportedConditions: A549, 48 h, read-out: GI
attributeMeasured: inhibition of growth at 10 µM (%)
State the answer as a number, implicitly in %.

{"smilesEntry": "[O-]/[N+](=N\\OCCl)N1CCCCC1", "inhibition of growth at 10 µM, %": 10.8}

Given item `CC1=C(CCC(=O)OCO/[N+]([O-])=N/N2CCCC2)C(=O)c2c(O)cccc2C1=O` , the value recorded as its inhibition of growth at 10 µM is 32.9

Given item `CC1=C(CCCC(=O)OCO/[N+]([O-])=N/N2CCOCC2)C(=O)c2c(O)cccc2C1=O` , the value recorded as its inhibition of growth at 10 µM is 91.2

Given item `CC1=C(CCC(=O)OCCCCO/[N+]([O-])=N/N2CCOCC2)C(=O)c2c(O)cccc2C1=O` , the value recorded as its inhibition of growth at 10 µM is 24.4

Given item `CC1=C(CCC(=O)OCO/[N+]([O-])=N/N2CCOCC2)C(=O)c2c(O)cccc2C1=O` , the value recorded as its inhibition of growth at 10 µM is 40.3

Given item `CC1=C(CCCC(=O)OCO/[N+]([O-])=N/N2CCCCC2)C(=O)c2c(O)cccc2C1=O` , the value recorded as its inhibition of growth at 10 µM is 86.7

Given item `CC1=C(CCC(=O)OCCO/[N+]([O-])=N/N2CCOCC2)C(=O)c2c(O)cccc2C1=O` , the value recorded as its inhibition of growth at 10 µM is 30.3
